Assay: soluble fraction after stress (log2 fold change); higher = more stays soluble; pooled small domains, quantitative proteomics;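 note: 20 min heating vs room temperature control held 20 min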
Details: stress: 75 degC
Could you please report measured soluble fraction (log2) for the items listed next?
Answer with the value's number alone.

Q) Look up soluble fraction (log2) for this sequence: HMDKKIVGVNAGKVWQALNEVTEISIVELAEKLNLSVESTALAAGWLAREDQISIERKNGTIELQRKN
A) -0.91

Q) Look up soluble fraction (log2) for this sequence: HMDGASVQRITELTATLNRYRHEYYNLAKPSVSDAVYDRLFDELAALEQKTGIVLSNSPTQTV
A) -0.326

Q) Look up soluble fraction (log2) for this sequence: HMSMVGSVNKQGRPFALLRVDNLLYQVKVGDYLGQNYGRITQIDETQIALREIVQDAAGEWIERPGVLQL
A) 0.294

Q) Look up soluble fraction (log2) for this sequence: HMVITDPFFLEPENLVKDAVALMEKYRISGVPITKKGKLVGILTNRDLRFESNYEQPIANVMS
A) 0.137

Q) Look up soluble fraction (log2) for this sequence: HMEDKIEESLEDNISELFAKTKDKYTLINDLYSKGYTVEELSRFSGLPSGEVRLVISLNSKN
A) -0.0653

Q) Look up soluble fraction (log2) for this sequence: HMELSSRQAMIVDIVRKYEPITSEQIADKLNLTRSALRPDLAVLTMIGILEARPRVGYFFTGK
A) -1.91

Q) Look up soluble fraction (log2) for this sequence: HMDELPKDILRSFGLPDKPWAMELLRNLRRDGFALDGETARAYAEMAAMKPPRTDARQWMTAADVAYRRG
A) -0.343

Q) Look up soluble fraction (log2) for this sequence: HMKKPRKTSRKSIENAAIFYLQRFSSSIENLRRVLMRRVYRSAQYHNTKPEEDAKIVDSIIYRLIETGVL
A) -0.322

Q) Look up soluble fraction (log2) for this sequence: HMSLSKEEFETISKQVLELAGAGPIPVKELLQKMERTSKEKAWKVIEFLQAEDKIVPDATGRIQL
A) -0.727

Q) Look up soluble fraction (log2) for this sequence: HMTSMTHLGRHPDSEISLDDISVSRRHAEIERQGHEYVLRDSGSLNGTYVNQQRVDSVVLQQGDEIL
A) 0.48

Q) Look up soluble fraction (log2) for this sequence: HMKDPSLEHIDALAGKPFQAFPGQDHRAHITAHLNFMSTNMVRNNPSIMAAIQKNILEHISLMAQEQIQL
A) -1.42

Q) Look up soluble fraction (log2) for this sequence: HMPASTSIPYSDFISRVESGDVQEAKIGESAITGTYKDGSQFKTVKPPTLDTNLMPTLIQNKVNVVGVEP
A) 0.176

Q) Look up soluble fraction (log2) for this sequence: HMTKTKFLSKDMILSAMSRTKSNRAAARYLSVSFVHYKKYAREYKDETSGVSLWEKHKNQSGTGIPK
A) -2.11

Q) Look up soluble fraction (log2) for this sequence: HMTIHVMEIKSLLPIKILDESQHLVQSFSSKNPTSYNYRLIFSDKSKLENIKKTINENKDVESIEIRYA
A) -0.885

Q) Look up soluble fraction (log2) for this sequence: HMSIEIKTIDVKHADLFQLQDILRNLYPELNIVPDQRNNKLILQGKRELLVEAERLTLQLDTE
A) 0.248

Q) Look up soluble fraction (log2) for this sequence: HMNLDMVINKIGIVTEDIKQDKIGEVKVLGKRWSAYSNTELKKDEKVKILSIDGVKLKVEKI
A) -0.135

Q) Look up soluble fraction (log2) for this sequence: HMNHHTEQQLKALSNKVKDHRMRMRLLAVAHFKAGKNKADVARTLNVSRRMVNEWVANYFKGGVSALES
A) -3.43
